Test system: DRAK2
Construct: gene STK17B
Details: concentration: 1 μM,replicates: in singlicate; n = 1;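 also: KINOMEscan kinase panel screen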
Measured Property: %Inh (%)

                               given_smiles  number
0  Cc1cc2cn[nH]c2cc1-c1cccc2c(N)c(C(N)=O)nnc12      27
1  C=CC(=O)Nc1cc2c(Nc3ccc(F)c(Cl)c3)ncnc2cc1OCCCN1CCOCC1       5
2  C[C@@H](Oc1cc(-c2cnn(C3CCNCC3)c2)cnc1N)c1c(Cl)ccc(F)c1Cl       0
3  C[C@@H]1CCN(C(=O)CC#N)C[C@@H]1N(C)c1ncnc2[nH]ccc12       5
4  Cc1n[nH]c2ccc(-c3cc(OC[C@@H](N)Cc4ccccc4)cnc3-c3ccoc3)cc12.O=C(O)C(F)(F)F.O=C(O)C(F)(F)F       0
5  Cl.Cl.NC[C@H](Cc1ccc(C(F)(F)F)cc1)NC(=O)c1cc(Br)c(-c2ccnc3[nH]ccc23)s1       0
6  O=C(NCCNc1ccnc(NCc2ccc(F)cc2)n1)c1cc2ccccc2s1       0
7  CC(C)N1C(=O)Cc2cc(Nc3ncc(C(F)(F)F)c(NCc4cccc(S(C)(=O)=O)c4)n3)ccc21      82

* * *

Tested on: NEK2
Details: concentration: 1 μM,replicates: in singlicate; n = 1
Binary call on %Inh with cut-off 4%: strictly below means yes, and equality or higher means no.

                                    molecule  assigned_category
 0  C[C@H]1Oc2cc(cnc2N)-c2c(nn(C)c2C#N)CN(C)C(=O)c2ccc(F)cc21                 no
 1  Cc1ccc(-n2nc(C(C)(C)C)cc2NC(=O)Nc2ccc(OCCN3CCOCC3)c3ccccc23)cc1                yes
 2  C[C@@H]1CCN(C(=O)CC#N)C[C@@H]1N(C)c1ncnc2[nH]ccc12                 no
 3  CC(C)N1C(=O)Cc2cc(Nc3ncc(C(F)(F)F)c(NCc4cccc(S(C)(=O)=O)c4)n3)ccc21                yes
 4  CN(C)CC(O)COc1ccc(Nc2nccc(-c3cnn4nc(N5CCOCC5)ccc34)n2)cc1 (centres unmarked)                 no
 5  O=C(NCCCN1CCOC1=O)c1cnc(NCc2cc(Cl)ccc2Cl)nc1NC1CCCC1                 no
 6  Cl.Cl.Nc1nc(-c2ccc3c(N)n[nH]c3c2)cc(N2CCCC(NC(=O)c3ccccc3)C2)n1 (centres unmarked)                yes
 7   CC(C)Nc1cc(-c2ccc3c(N)n[nH]c3c2)nc(N)n1                yes
 8  C=CC(=O)Nc1cc2c(Nc3ccc(F)c(Cl)c3)ncnc2cc1OCCCN1CCOCC1                yes
 9  Cl.Oc1cc(-c2nc(-c3ccccc3)[nH]c2-c2ccncc2)ccc1Cl                yes
10  Cc1cc(C(=O)Nc2ccc(Oc3ccc4nc(NC(=O)C5CC5)cn4n3)cc2)nn1-c1ccccc1                 no
11  Cc1ccc2c(-c3ccncc3)c(-c3ccc(F)cc3)nn2c1.Cl                yes
12  CN(C)CCOc1ccc(-c2cc(-c3c[nH]nc3-c3ccccn3)ccn2)cc1                yes
